Experiment: binders of probe aHhip on microarray, primary screen, stem cell growth factor project, biochemical, small-molecule microarray, fluorescence 635/667 (AID 1087);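 note: score merges spot fluorescence at 667nm with spot signal to noise ratio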
Settings: higher = more signal
EXPERIMENTAL_ENDPOINT: composite z-score
Answer using only a numeral; do not append any unit.

- COc1ccc(CCNC(=O)[C@@]2(c3ccc([N+](=O)[O-])cc3)CC(=O)N(C(C)C)[C@@H]2c2ccc(CO)cc2)cc1: -0.265
- CCCC[C@H]1OB(O)C[C@H]2C1=C(COC)C[C@H]1C(=O)N(Cc3ccccc3)C(=O)[C@H]12: 0.124
- CCN1C(C)=C(C(=O)OC)[C@@H](c2ccccc2)N2C(=O)[C@@]3(C(=O)OC)O[C@@]12[C@@H]1C(=O)CCC[C@@H]13: 0.351
- CCN1C(C)=C(C(=O)OC)[C@@H](c2ccccc2)N2C(=O)[C@@]3(C(=O)OC)O[C@@]12[C@@H]1C(=O)N(c2ccccc2)C(=O)[C@@H]13: 0.122
- NC(=O)NCC#Cc1ccc2c(c1)[C@]1(C(=O)N2)[C@H](C(=O)N2CCCCCCC2)[C@H]2C(=O)O[C@H](c3ccccc3)[C@H](c3ccccc3)N2[C@@H]1c1ccccc1OCCO: 0.526

[Q] Record request: composite z-score value, item `COCCOC(=O)N1C(=O)[C@@]2(c3cc(C#CCNC(N)=O)ccc31)[C@H](c1ccccc1OCCO)N1[C@H](c3ccccc3)[C@H](c3ccccc3)OC(=O)[C@H]1[C@@H]2C(=O)NC[C@H](O)c1ccccc1`
[A] -0.0672

[Q] Similarly, `O=C/C=C/c1ccc(/C=C/c2ccccc2)cc1` ?
[A] 0.154

[Q] Note, next up: `C[C@@H]1CC[C@H]2C(=O)N3[C@@H](CC[C@@H](C)[C@@H]3c3cccc(N4CCOCC4)c3)C(=O)N2[C@H]1c1cccc(Br)c1`
[A] 0.0373

[Q] Record: `COc1ccc([Si](C)(C)[C@H]2[C@H](CC(=O)N(CCO)Cc3ccccc3)O[C@@]3(C(=O)N(C)c4ccccc43)[C@@H]2C)cc1`
[A] -0.21

[Q] Would you mind doing `CCOC(=O)C[C@H]1[C@H](OC(=O)c2cc3ccccc3oc2=O)[C@@H](NC(=O)C2CCCCC2)c2cc(OCCCO)ccc2N1C(=O)c1ccc2ccccc2n1` as well?
[A] -0.0645

[Q] Entry `CCCC=C(CCC)[C@@H](NS(=O)(=O)c1ccc(C(F)(F)F)cc1)c1ccc(-c2ccccc2)cc1` please
[A] 2.14

The origin of these recorded values is PubChem BioAssay.
